# testedSystem: T1, RE peptide (Octet assay of PS621 variants)
# T1 construct: RXKLDEESILKQK with X = E
# T1 peptide: REKLDEESILKQK
# assayRemarks: Octet (BLI), 30 C
Provide the reported Octet response of each item.
Give bare numbers.

[
  {
    "binder": "PS621 (other, UBR protein (UBR-box) parent of PS1101-PS1122) MHSKFSHAGRICGAKFKVGEPIYRCKECSFDDTCVLCVNCFNPKDHTGHHVYTTICTEFNNGICDCGDKEAWNHTLFCKAEEG",
    "Octet response": 5.8
  },
  {
    "binder": "PS1102 (designed binder, Variant of PS621) MHSKFSHAGRICGAKFKVGEPIYRCKECQFDDTCVLCVNCFNPKDHTGHHVYTTICTEFNNGICDCGDKEAWNHTLFCKAEEG",
    "Octet response": 6.6
  },
  {
    "binder": "PS1115 (designed binder, Variant of PS621) MHSKFSHAGRICGAKFKVGEPIYRCKECSFDDTCVLCVNCFNPKDHRGHHVYTTICTERNNGICDCGDKEAWNHELFCKAEEG",
    "Octet response": 7.6
  },
  {
    "binder": "PS1120 (designed binder, Variant of PS621) MHSKFSHAGRICGAKFKVGEPIYRCKECSFDDTCVLCVNCFNPKDHTGHHVYTKICTEFNNGICDCGDKEAWNHTLFCKAEEG",
    "Octet response": 8.8
  },
  {
    "binder": "PS1105 (designed binder, Variant of PS621) MHSKFSHAGRICGAKFKVGEPIYRCKECSFDDTCVLCVNCFNPKDHTRHHVYTTICTEFNNGICDCGDKEAWNHTLFCKAEEG",
    "Octet response": 2.9
  }
]

The following binders each have a reported value; give each one's Octet response.
1. PS1104 (designed binder, Variant of PS621) MHSKFSHAGRICGAKFKVGEPIYRCKECSFDDTCVLCVNCFNPKDHRGHHVYTTICTEFNNGICDCGDKEAWNHTLFCKAEEG
2. PS1101 (designed binder, Variant of PS621) MHSKFSHAGRICGAKFKVREPIYRCKECSFDDTCVLCVNCFNPKDHTGHHVYTTICTEFNNGICDCGDKEAWNHTLFCKAEEG

Response:
1. 7.6
2. 1.9

Data provenance is patent US20240272170A1.
